Readings of Kd for the listed compounds
# System: CSF1R;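 also: kd values determined as follow-up on hits from a single-replicate KINOMEscan panel screen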
MEASURED QUANTITY: Kd

COc1ccc(NC(=O)Nc2ccc(C)c(-c3ccc(C(=O)Nc4ccncc4)cc3)c2)cc1 | 1800 nM
Cn1ccc2ncnc(Oc3ccc(NC(=O)Nc4cccnc4)c(Cl)c3)c21 | 290 nM
O=C(NCCCN1CCCC1=O)c1cnc(NCc2cc(Cl)ccc2Cl)nc1NC1CCNCC1 | > 10000 nM
COc1cc2c(Nc3cccc(NC(=O)c4ccccc4)c3)ncnc2cc1OCCCN1CCOCC1 | 420 nM

###

# Tested on: LYN;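 also: KINOMEscan kinase panel screen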
# MEASUREMENT CONDITIONS: concentration: 1 μM, replicates: in singlicate; n = 1
MEASURED QUANTITY: %Inh (%)

FC(F)(F)c1ccc(-c2cc(-c3c[nH]nc3-c3ccccn3)ccn2)cc1 | 0
Fc1cccc(COc2ccc(Nc3ncnc4nn5ccccc5c34)cc2Cl)c1 | 0
Cl.Fc1ccccc1COc1ccc(Nc2ncnc3ccc(-c4nnc(C(F)(F)F)o4)cc23)cc1Cl | 0
Fc1ccc(-c2ncn(CCCNCc3ccccc3)c2-c2ccncc2)cc1 | 22
CC(C)(C)OC(=O)NC1CCCN(c2cc(-c3ccc4c(N)n[nH]c4c3)nc(N)n2)C1 (centres unmarked) | 0
Cn1ccc2ncnc(Nc3ccc(Oc4cccc(Cl)c4)c(Cl)c3)c21 | 4
O=C(Nc1ccccc1F)NC1CCN(c2ccnc(Nc3ccc(F)cc3)n2)C1 (centres unmarked) | 0
O=C(Nc1n[nH]c2nc(-c3ccco3)c(Br)cc12)c1ccc(CN2CCCC2)cc1.O=C(O)[C@H](O)[C@@H](O)C(=O)O | 50
CCC(CC)(CC)n1cnc2c(N)ncnc21 | 0
NC(=O)c1sc(-n2cnc3ccccc32)cc1OCc1ccccc1F | 0
Cl.c1ccc(Cn2ncc3cc(Nc4ncnc5ccccc45)ccc32)cc1 | 0
Cl.O=S(=O)(c1cccc(F)c1)c1ccc(Nc2ncnc3cc(Br)sc23)cc1Cl | 0
CCCc1ccc(S(=O)(=O)NC2CCN(c3ccnc(Nc4ccc(OC)cc4)n3)C2)cc1 (centres unmarked) | 0
Cl.Cn1ccc(-c2cccc(Nc3ccnc4cc(-c5nccs5)ccc34)c2)n1 | 0
COc1ccc(-c2oc3ncnc(N)c3c2-c2ccc(OC)cc2)cc1 | 4
Nc1n[nH]c2nnc(-c3ccccc3)cc12 | 69
FC(F)(F)c1ccc(-c2nn3ncccc3c2-c2ccnc(Nc3cccc(C(F)(F)F)c3)n2)cc1 | 0
CC(C)N1CCC(n2cnc(-c3ccc(F)cc3)c2-c2ccnc(N)n2)CC1 | 22
Cn1cc(-c2ccc3c(c2)CCN3C(=O)Cc2cccc(C(F)(F)F)c2)c2c(N)ncnc21 | 0
CC(=O)Nc1n[nH]c2ncc(-c3ccccc3)cc12 | 0
CNc1nccc(-c2c(-c3ccc(F)cc3)ncn2C2CCN(C)CC2)n1 | 0
O=C(NCCCN1CCCC1=O)c1cnc(NCc2cc(Cl)ccc2Cl)nc1NC1CCNCC1 | 1
Cc1cc(N2CCC(NS(=O)(=O)c3ccc(F)cc3)CC2)nc(Nc2cccc(C#N)c2)n1.O=C(O)C(F)(F)F | 0
Clc1cccc(-c2nc(Nc3ccncc3)c3ccccc3n2)c1 | 0
CN1CCC(n2cnc(-c3ccc(F)cc3)c2-c2ccnc(NC3CCNCC3)n2)CC1 | 15
O=C(c1ccc(-c2cc(-c3c[nH]nc3-c3ccccn3)ccn2)cc1)N1CCCC1 | 0
C[C@H]1CC[C@@H](C(=O)Nc2ccccc2)CN1c1cc(-c2ccc3c(N)n[nH]c3c2)nc(N)n1 | 0
OCCOCCn1ccc2ncnc(Nc3ccc(Oc4cccc(Cl)c4)c(Cl)c3)c21 | 19
CN1c2ccc(-c3ccc(C(=O)NCCO)cc3)cc2-c2[nH]ncc2S1(=O)=O | 22
COc1cc2ncnc(Nc3ccc(OCc4ccccc4Br)c(Cl)c3)c2cc1OC.Cl | 30
CSc1nn2c(=O)cc(N3CCOCC3)nc2n1Cc1cccc(Cl)c1Cl | 10
Cc1ccc(O)cc1Nc1cc(C(F)(F)F)nc2ccc(-c3ccncc3)cc12 | 1
COc1ccc(Nc2nccc(N3CCC(NC(=O)Nc4ccc5c(c4)OCO5)C3)n2)cc1 (centres unmarked) | 1
Cl.c1ccc(Cn2ccc3cc(Nc4ncnc5ccccc45)ccc32)cc1 | 0
COc1ccc(Nc2nccc(N3CCC(NC(=O)c4cccc(NC(C)=O)c4)C3)n2)cc1 (centres unmarked) | 0
